tested on: cch-evoked bronchoconstriction; experiment: Experimental bronchospasm (carbachol-induced bronchoconstriction, Konzett & Roessler); type: in vivo, Male CD Sprague Dawley rats; settings: iv; rat, dose 10 μg/Kg intratracheal, 1 hour after administration, carbachol 80 μg/kg i.v.; read-out: Inhibition % (±s.e. mean) of cch-evoked bronchoconstriction
Consider the following compounds and their measured inhibition in vivo at 0.01 mg/kg readings.
READOUT TYPE: inhibition in vivo at 0.01 mg/kg (%)

Nc1nccc(-c2cnc(NCc3cccc(C(=O)Nc4ccc(OC[C@]5(F)CCNC5)cn4)c3)c3c2OCC3)n1 | 58
CNC1(COc2ccc(NC(=O)c3cccc(CNc4ncc(-c5ccnc(N)n5)c5c4CCO5)c3)nc2)CCOCC1 | 85.7
CN(C)CCC(=O)N1CCN(c2ccc(NC(=O)c3cccc(CNc4ncc(-c5ccnc(N)n5)c5c4CCO5)c3)nc2)CC1 | 79.4
CN1CCN(Cc2ccc(NC(=O)c3cccc(CNc4ncc(-c5ccnc(N)n5)c5c4CCO5)c3)nc2)CC1 | 68.8
